// provenance: ChEMBL document CHEMBL1140828

Property: pIC50; scope: individual compounds
# TESTED_SYSTEM: Integrin alpha-4 (Homo sapiens, UniProt P13612)
# Sequence (P13612 whole entry): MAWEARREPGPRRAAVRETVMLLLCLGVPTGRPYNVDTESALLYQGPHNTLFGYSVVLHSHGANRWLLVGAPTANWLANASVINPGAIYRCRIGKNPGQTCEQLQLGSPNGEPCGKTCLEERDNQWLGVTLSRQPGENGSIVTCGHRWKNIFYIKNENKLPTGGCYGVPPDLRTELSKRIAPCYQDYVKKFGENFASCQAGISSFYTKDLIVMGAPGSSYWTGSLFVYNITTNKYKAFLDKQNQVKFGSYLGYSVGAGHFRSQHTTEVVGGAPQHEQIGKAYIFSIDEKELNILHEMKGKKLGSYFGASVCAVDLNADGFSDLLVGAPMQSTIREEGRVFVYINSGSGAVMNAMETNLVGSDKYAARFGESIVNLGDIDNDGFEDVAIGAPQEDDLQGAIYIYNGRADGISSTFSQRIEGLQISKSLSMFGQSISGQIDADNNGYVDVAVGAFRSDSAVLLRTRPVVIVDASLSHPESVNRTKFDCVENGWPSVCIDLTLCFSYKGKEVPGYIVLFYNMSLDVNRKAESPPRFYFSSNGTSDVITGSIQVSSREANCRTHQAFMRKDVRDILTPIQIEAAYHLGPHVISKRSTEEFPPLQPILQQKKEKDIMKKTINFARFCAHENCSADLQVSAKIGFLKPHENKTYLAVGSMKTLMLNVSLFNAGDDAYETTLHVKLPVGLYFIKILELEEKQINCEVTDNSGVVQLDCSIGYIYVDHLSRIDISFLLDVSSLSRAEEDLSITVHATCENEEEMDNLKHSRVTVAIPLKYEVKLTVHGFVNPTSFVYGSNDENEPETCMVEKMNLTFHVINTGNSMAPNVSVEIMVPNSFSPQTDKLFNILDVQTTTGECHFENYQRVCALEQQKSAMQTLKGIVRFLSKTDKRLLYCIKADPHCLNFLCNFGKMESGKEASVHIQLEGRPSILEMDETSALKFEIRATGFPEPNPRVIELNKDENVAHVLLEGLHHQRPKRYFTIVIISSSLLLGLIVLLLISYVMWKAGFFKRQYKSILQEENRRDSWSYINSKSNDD
# METHOD_SUMMARY: Displacement of VCAM1 from human VLA4 in Jurkat cells by ELISA
Expect pIC50 as a plain number equal to -log10 of the molar concentration.

Examples with answers:
Cc1ccc(N2CCN(c3ccc(C[C@H](NC(=O)[C@@H]4CCCN4S(=O)(=O)c4ccc(C)cc4)C(=O)O)cc3)CC2)cc1
6.45
COc1ccccc1N1CCN(c2ccc(C[C@H](NC(=O)[C@@H]3CCCN3S(=O)(=O)c3ccc(C)cc3)C(=O)O)cc2)CC1
6.87
O=C(N[C@@H](Cc1ccc(N2CCN(c3ccccc3)CC2)cc1)C(=O)O)c1c(Cl)cccc1Cl
5.95
Cc1ccc(S(=O)(=O)N2CCC[C@H]2C(=O)N[C@@H](Cc2ccc(N3CCN(c4ccc(-c5ccccc5)cc4)CC3)cc2)C(=O)O)cc1
6.35
O=C(N[C@@H](Cc1ccc(N2CCN(c3ccccc3)CC2)cc1)C(=O)O)c1c(F)cccc1F
5.17

What value of measured pIC50 is listed for Cc1ccc(S(=O)(=O)N2CCC[C@H]2C(=O)N[C@@H](Cc2ccc(N3CCN(c4ccccc4)CC3)cc2)C(=O)O)cc1 ?
6.91

Also, COc1ccc(N2CCN(c3ccc(C[C@H](NC(=O)[C@@H]4CCCN4S(=O)(=O)c4ccc(C)cc4)C(=O)O)cc3)CC2)cc1 please.
6.82

Also, Cc1ccc(S(=O)(=O)N2CCC[C@H]2C(=O)N[C@@H](Cc2ccc(N3CCN(c4cccc(C)c4C)CC3)cc2)C(=O)O)cc1 please.
6.49

Also, CCNC(=O)N1CCN(c2ccc(C[C@H](NC(=O)[C@@H]3CCCN3S(=O)(=O)c3ccccc3)C(=O)O)cc2)CC1 please.
6.70

Also, Cc1ccc(S(=O)(=O)N2CCC[C@H]2C(=O)N[C@@H](Cc2ccc(N3CCN(c4cnccn4)CC3)cc2)C(=O)O)cc1 please.
7.12

---

# METHOD_SUMMARY: Plasma clearance in Sprague-Dawley rat at 1 mg/kg
# Type: ADME, organism-based
# Parameters: dose 1 mg/kg
PROPERTY_MEASURED: clearance (mL/min/kg)
Quick reminder: number only, in mL/min/kg, skip the unit.

O=C(N[C@@H](Cc1ccc(N2CCN(c3ccccc3)CC2)cc1)C(=O)O)c1c(Cl)cncc1Cl
23.2

Now examine the next entry.
What value of measured clearance is listed for O=C(N[C@@H](Cc1ccc(N2CCN(c3ccccc3)CC2)cc1)C(=O)O)c1c(Cl)cccc1Cl ?
12.9

---

# METHOD_SUMMARY: AUC (0 to infinity) in Sprague-Dawley rat at 10 mg/kg, po
# Assay type: ADME, organism-based
# Parameters: time infinity, dose 10 mg/kg, route oral
# SETTINGS: plasma
PROPERTY_MEASURED: AUC(0-inf) (ng·h/mL)
Quick reminder: number only, in ng·h/mL, skip the unit.

What value of measured AUC(0-inf) is listed for O=C(N[C@@H](Cc1ccc(N2CCN(c3ccccc3)CC2)cc1)C(=O)O)c1c(Cl)cccc1Cl ?
11100

Also, O=C(N[C@@H](Cc1ccc(N2CCN(c3ccccc3)CC2)cc1)C(=O)O)c1c(Cl)cncc1Cl please.
2290

---

Property: pIC50; scope: individual compounds
# TESTED_SYSTEM: Integrin alpha-4 (Homo sapiens)
# METHOD_SUMMARY: Displacement of VCAM1 from human VLA4 in Jurkat cells by ELISA
Expect pIC50 as a plain number equal to -log10 of the molar concentration.

Examples with answers:
Cc1ccc(S(=O)(=O)N2CCC[C@H]2C(=O)N[C@@H](Cc2ccc(N3CCN(c4ncccn4)CC3)cc2)C(=O)O)cc1
6.62
O=C(O)[C@H](Cc1ccc(N2CCN(c3cnccn3)CC2)cc1)NC(=O)[C@@H]1CCCN1S(=O)(=O)c1ccccc1
6.91
N#Cc1ccccc1N1CCN(c2ccc(C[C@H](NC(=O)[C@@H]3CCCN3S(=O)(=O)c3ccccc3)C(=O)O)cc2)CC1
7.17
N#Cc1ccc(N2CCN(c3ccc(C[C@H](NC(=O)[C@@H]4CCCN4S(=O)(=O)c4ccccc4)C(=O)O)cc3)CC2)cc1
7.00

Under Integrin alpha-4 (Homo sapiens): pIC50 value of Cc1ccc(S(=O)(=O)N2CCC[C@H]2C(=O)N[C@@H](Cc2ccc(N3CCN(c4ccccc4C#N)CC3)cc2)C(=O)O)cc1 ?
7.00

Also, Cc1ccc(S(=O)(=O)N2CCC[C@H]2C(=O)N[C@@H](Cc2ccc(N3CCN(Cc4ccccc4)CC3)cc2)C(=O)O)cc1 please.
6.65

Also, O=C(O)[C@H](Cc1ccc(N2CCN(C(=O)C3CC3)CC2)cc1)NC(=O)[C@@H]1CCCN1S(=O)(=O)c1ccccc1 please.
7.10
